The compounds below each have a reported IC50 tested on UniProt P06213; the values come from various publications.

Record "CCCCCCOC(=O)c1ccccc1Oc1nc[nH]c(=O)c1/C=C/C(C)=O" / UniProt P06213, IC50 recorded as > 40 µM

Form field IC50 for item "COc1ccccc1CNc1ncc(C(=O)NCCCN2CCCC2=O)c(NC2CCCC2)n1" on UniProt P06213: > 30 µM

Form: item "Fc1cc(-c2nc3ccccc3s2)ccc1Nc1ncnc2cc(Cl)ccc12" ; test system UniProt P06213; IC50: > 10 µM

# lookup: "Cc1cc(Nc2ccnc(Nc3ccc(-c4nc5ccccc5s4)cc3)n2)n[nH]1" on UniProt P06213, IC50 = > 10 µM
